List of protein stability index values.
B1: ZNF263 (parent)
chain: KPYKCTLCGENFSHRSNLIRHQRI

- Variants of: B1
- Assay name: protein stability index of a GFP-peptide fusion (GPS, HEK-293T) (PSI 1-6); higher = more stable;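 further: lentivirally expressed fusions sorted by FACS into six bins by GFP to DsRed ratio, PSI derived from sequencing read proportions per bin multiplied by bin number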
- Measurement parameters: c terminus: a fixed tail appended
Write the value as a bare number.

Sample records with protein stability index:
INSERT INTO results (variant_spec, measured_attribute, measured_result) VALUES
  ('S13M', 'protein stability index', 2.52),
  ('H21S', 'protein stability index', 1.89),
  ('K4R', 'protein stability index', 2.54);

Value of measured protein stability index for the entry "G9N" : 2.36

Value of measured protein stability index for the entry "S16I" : 2.41

Value of measured protein stability index for the entry "S16G" : 1.94

Value of measured protein stability index for the entry "H21A" : 2.13

Value of measured protein stability index for the entry "R15Y" : 2.45

Value of measured protein stability index for the entry "T6R" : 2.96

Value of measured protein stability index for the entry "E10R" : 2.97

Value of measured protein stability index for the entry "T6P" : 2.42

Value of measured protein stability index for the entry "K4Y" : 2.16

Value of measured protein stability index for the entry "G9K" : 2.05

Value of measured protein stability index for the entry "I19G" : 3.08

Value of measured protein stability index for the entry "R20N" : 2.38

Value of measured protein stability index for the entry "R23F" : 1.66

Value of measured protein stability index for the entry "C5M" : 1.67

Value of measured protein stability index for the entry "R15D" : 1.55

Value of measured protein stability index for the entry "L18F" : 2.56

Value of measured protein stability index for the entry "K4Q" : 2.48

Value of measured protein stability index for the entry "Y3Q" : 2.14

Value of measured protein stability index for the entry "L18I" : 1.95

Value of measured protein stability index for the entry "Y3T" : 2.4
